Attribution: patent US20220348590A1

assay: Rat Microsome Stability; format: in vitro ADME; conditions: rat microsomes
The label true (1) is reserved for Rat Microsome Stability % Remaining Avg strictly under 10%; false (0) covers values equal to or above it.

Reference set, count: 3
- Compound: "COc1ncc(NCc2ccco2)nc1-c1ccc(S(C)(=O)=O)cc1 [Compound 43]"
  Label Class: "false (0)"
- Compound: "CS(=O)(=O)c1ccc(-c2cccc(NCc3cccs3)n2)cc1 [Compound 24]"
  Label Class: "true (1)"
- Compound: "CS(=O)(=O)c1ccc(-c2cncc(NCc3cccs3)n2)cc1 [Compound 98]"
  Label Class: "false (0)"

Inquiry: Please indicate whether the reported Rat Microsome Stability % Remaining Avg of CS(=O)(=O)c1ccc(-c2cccc(NCc3ccco3)n2)cc1 [Compound 36] is strictly below 10%.
Reply text: false (0)

Inquiry: Determine if COc1ncc(NCc2cccs2)nc1-c1ccc(S(C)(=O)=O)cc1 [Compound 29] shows Rat Microsome Stability % Remaining Avg strictly lower than 10%.
Reply text: true (1)

====

experiment: Human Microsome Stability; assay type: in vitro ADME; details: human microsomes
Would you mind labelling by Human Microsome Stability % Remaining Avg? At or over 30% is condition met, under is condition not met.

- Compound: "CS(=O)(=O)c1ccc(-c2cccc(OCc3ccco3)n2)cc1 [Compound 28]"
  Label Class: "condition not met"
- Compound: "CS(=O)(=O)c1ccc(-c2cccc(NCc3ccco3)n2)cc1 [Compound 36]"
  Label Class: "condition not met"
- Compound: "CS(=O)(=O)c1ccc(-c2cccc(NCc3cccs3)n2)cn1 [Compound 59]"
  Label Class: "condition not met"
- Compound: "CS(=O)(=O)c1ccc(-c2ccc(F)c(NCc3ccco3)n2)cc1 [Compound 15]"
  Label Class: "condition met"
- Compound: "CS(=O)(=O)c1ccc(-c2cccc(NCc3ccoc3)n2)cc1 [Compound 47]"
  Label Class: "condition not met"

Inquiry: Is reported Human Microsome Stability % Remaining Avg greater than or equal to 30% here: CS(=O)(=O)c1ccc(-c2cncc(NCc3ccc(F)cc3)n2)cc1 [Compound 96]
Reply text: condition met

Inquiry: Check if Human Microsome Stability % Remaining Avg >= 30% (inclusive). Item: CS(=O)(=O)c1ccc(-c2cncc(NCc3ccco3)n2)cc1 [Compound 120]
Reply text: condition met

Inquiry: Does Human Microsome Stability % Remaining Avg meet or surpass 30% for CS(=O)(=O)c1ccc(-c2cccc(OCc3ccsc3)n2)cc1 [Compound 9] ?
Reply text: condition met

Inquiry: Is reported Human Microsome Stability % Remaining Avg greater than or equal to 30% here: CS(=O)(=O)c1ccc(-c2nc(NCc3cccs3)cc3ccoc23)cc1 [Compound 2]
Reply text: condition not met

Inquiry: Is Human Microsome Stability % Remaining Avg at least 30%? Consider CS(=O)(=O)c1ccc(-c2nc(NCc3ccoc3)ccc2F)cc1 [Compound 48]
Reply text: condition met

Inquiry: Answer whether Human Microsome Stability % Remaining Avg of CS(=O)(=O)c1ccc(-c2cccc(NCc3cccs3)n2)cc1 [Compound 24] is greater than or equal to 30%.
Reply text: condition not met

====

Consider the following compounds and their measured COX2 2 minutes pge2 area (counts) Avg. LLE readings.
biological target: human recombinant COX2 (hCOX2) (UniProt P35354); experiment: LCMS-based COX2 enzymatic inhibition assay (PGE2 quantification); type: biochemical; set-up: COX2 2 minutes pge2/pge2d4 area ratio Avg; other: 2 minutes; readout pge2/pge2d4 area ratio; average; COX2 2 minutes pge2/pge2d4 area ratio Avg; LLE; average LLE; COX2 2 minutes pge2 area (counts) Avg; readout pge2 area (counts); other: 2 min; "ovine COX2 (oCOX2), human recombinant COX2 (hCOX2)"; details: 2 minutes; readout pge2 area (counts); average LLE
Form rule: numeric answer, no unit written next to it.

- Compound: "CS(=O)(=O)c1ccc(-c2cccc(NCc3ccoc3)n2)cn1 [Compound 113]"
  Result: 4.897

Inquiry: Please indicate COX2 2 minutes pge2 area (counts) Avg. LLE recorded for CS(=O)(=O)c1ccc(-c2cccc(OCc3cccs3)n2)cc1 [Compound 1]
Reply text: 4.806

Inquiry: Specify measured COX2 2 minutes pge2 area (counts) Avg. LLE for CS(=O)(=O)c1ccc(-c2cncc(NCc3ccc(F)nc3)n2)cc1 [Compound 208] .
Reply text: 4.501

Inquiry: For the compound Cn1cccc1CNc1cccc(-c2ccc(S(C)(=O)=O)cc2)n1 [Compound 77] , give its reported COX2 2 minutes pge2 area (counts) Avg. LLE.
Reply text: 4.246

Inquiry: Give COX2 2 minutes pge2 area (counts) Avg. LLE for the following compound: Cn1ccc(CNc2cccc(-c3ccc(S(C)(=O)=O)cc3)n2)n1 [Compound 188]
Reply text: 4.373

====

Target: human recombinant COX2 (hCOX2) (UniProt P35354)
Sequence (P35354 1-604): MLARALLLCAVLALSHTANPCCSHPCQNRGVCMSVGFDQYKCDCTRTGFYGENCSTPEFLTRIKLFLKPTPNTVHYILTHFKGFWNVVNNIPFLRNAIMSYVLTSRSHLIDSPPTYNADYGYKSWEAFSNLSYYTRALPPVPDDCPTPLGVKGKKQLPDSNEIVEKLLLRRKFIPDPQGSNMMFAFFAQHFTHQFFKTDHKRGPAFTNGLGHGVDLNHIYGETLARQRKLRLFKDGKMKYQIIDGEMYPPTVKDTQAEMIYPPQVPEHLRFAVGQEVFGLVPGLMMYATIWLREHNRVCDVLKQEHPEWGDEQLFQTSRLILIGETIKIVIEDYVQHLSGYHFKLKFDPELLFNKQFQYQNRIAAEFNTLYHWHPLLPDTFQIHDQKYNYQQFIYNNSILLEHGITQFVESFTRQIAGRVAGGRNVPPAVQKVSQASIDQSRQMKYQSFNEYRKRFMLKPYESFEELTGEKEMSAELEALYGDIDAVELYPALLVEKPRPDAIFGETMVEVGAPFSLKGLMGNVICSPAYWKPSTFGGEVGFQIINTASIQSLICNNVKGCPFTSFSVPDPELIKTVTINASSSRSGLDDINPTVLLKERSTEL
Experiment: LCMS-based COX2 enzymatic inhibition assay (PGE2 quantification)
Format: biochemical
Parameters: COX2 2 minutes pge2/pge2d4 area ratio Avg; other: 2 minutes; readout pge2/pge2d4 area ratio; average; COX2 2 minutes pge2/pge2d4 area ratio Avg; LLE; average LLE; COX2 2 minutes pge2 area (counts) Avg; readout pge2 area (counts); other: 2 min; "ovine COX2 (oCOX2), human recombinant COX2 (hCOX2)"
Settings: 2 minutes; readout pge2 area (counts); average; read-out: COX2 2 minutes pge2 area (counts) Avg. IC50
Description: We have adapted a previously reported cyclooxygenase enzymatic assay utilizing LCMS quantification of PGE2 as the product of COX-1 and COX2 catalyzed conversion of arachidonic acid to evaluate the binding properties of newly synthesized ligands [Cao, 2011]. […] Using these enzymatic assays, we have evaluated>200 newly synthesized ligands against COX2 and >20 ligands against COX-1. […]
Readings of pIC50 for the listed compounds
Interpret pIC50 as the negative base-10 log of the concentration measured in mol/L.

Past entries and their recorded results:
- Sample Smiles: "CS(=O)(=O)c1ccc(-c2cncc(SCc3ccon3)n2)cc1"
  Readout Label: "pIC50"
  Result: 6.59
- Sample Smiles: "COc1ncc(NCc2ccon2)nc1-c1ccc(S(C)(=O)=O)cc1"
  Readout Label: "pIC50"
  Result: 6.76
- Sample Smiles: "CS(=O)(=O)c1ccc(-c2cccc(C(=O)C(=O)c3cccs3)n2)cc1"
  Readout Label: "pIC50"
  Result: 6.11
- Sample Smiles: "CSc1ccc(NCc2cccs2)nc1-c1ccc(S(C)(=O)=O)cc1"
  Readout Label: "pIC50"
  Result: 7.94
- Sample Smiles: "CS(=O)(=O)c1ccc(-c2cncc(NC[C@H]3CCCO3)n2)cc1"
  Readout Label: "pIC50"
  Result: 5.39
- Sample Smiles: "CS(=O)(=O)c1ccc(-c2nc(OCc3cccs3)cc3ncccc23)cc1"
  Readout Label: "pIC50"
  Result: 6.51
- Sample Smiles: "COc1ncc(NCc2ccoc2)nc1-c1ccc(S(C)(=O)=O)cc1"
  Readout Label: "pIC50"
  Result: 7.70
- Sample Smiles: "CS(=O)(=O)c1ccc(-c2nc(NCc3cccs3)cc3ccoc23)cc1"
  Readout Label: "pIC50"
  Result: 8.26

Inquiry: Give me measured pIC50, please, for this compound: `CS(=O)(=O)c1ccc(-c2ccc(F)c(NCc3ccoc3)n2)cc1`
Reply text: 7.82

====

Target: human recombinant COX2 (hCOX2) (UniProt P35354)
Sequence (P35354 1-604): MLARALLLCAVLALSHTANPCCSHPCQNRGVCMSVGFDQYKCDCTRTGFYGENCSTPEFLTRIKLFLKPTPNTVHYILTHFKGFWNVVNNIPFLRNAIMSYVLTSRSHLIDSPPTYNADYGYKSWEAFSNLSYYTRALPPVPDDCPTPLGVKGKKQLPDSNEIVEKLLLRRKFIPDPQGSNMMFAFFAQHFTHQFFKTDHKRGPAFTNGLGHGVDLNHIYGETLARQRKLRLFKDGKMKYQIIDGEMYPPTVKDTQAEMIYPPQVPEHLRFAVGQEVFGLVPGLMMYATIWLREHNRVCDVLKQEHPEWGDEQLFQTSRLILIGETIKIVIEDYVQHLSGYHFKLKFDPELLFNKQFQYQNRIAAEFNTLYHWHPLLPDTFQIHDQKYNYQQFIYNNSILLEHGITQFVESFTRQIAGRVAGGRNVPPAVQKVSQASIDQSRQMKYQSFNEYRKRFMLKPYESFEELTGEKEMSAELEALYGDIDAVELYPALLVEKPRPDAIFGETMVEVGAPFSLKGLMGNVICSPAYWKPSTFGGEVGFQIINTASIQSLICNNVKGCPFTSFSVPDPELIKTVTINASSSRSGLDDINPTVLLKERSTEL
Assay: LCMS-based COX2 enzymatic inhibition assay (PGE2 quantification)
Assay type: biochemical
Design: COX2 2 minutes pge2/pge2d4 area ratio Avg; other: 2 minutes; readout pge2/pge2d4 area ratio; average; COX2 2 minutes pge2/pge2d4 area ratio Avg; LLE; average LLE; COX2 2 minutes pge2 area (counts) Avg; readout pge2 area (counts); other: 2 min; "ovine COX2 (oCOX2), human recombinant COX2 (hCOX2)"
Settings: 2 minutes; readout pge2/pge2d4 area ratio; average LLE
Readout Label: COX2 2 minutes pge2/pge2d4 area ratio Avg. LLE
# respond with the number and nothing more

Use these answered entries as a reference point.
- Molecule: "CS(=O)(=O)c1ccc(-c2cncc(OCc3ccns3)n2)cc1 [Compound 153]"
  Result: 5.153
- Molecule: "CS(=O)(=O)c1ccc(-c2cncc(NC[C@H]3CCCS3)n2)cc1 (single isomer, unassigned) [Compound 162]"
  Result: 4.811
- Molecule: "CS(=O)(=O)c1ccc(-c2ccnc(OCc3cccs3)c2)cc1 [Compound 267]"
  Result: 1.454
- Molecule: "CS(=O)(=O)c1ccc(-n2ccc3ccc(NCc4cccs4)nc32)cc1 [Compound 57]"
  Result: 3.1281

Inquiry: Supply COX2 2 minutes pge2/pge2d4 area ratio Avg. LLE value. Item: CS(=O)(=O)c1ccc(-c2cncc(NCc3ncco3)n2)cc1 [Compound 246]
Reply text: 4.306

Inquiry: Please give the documented COX2 2 minutes pge2/pge2d4 area ratio Avg. LLE of CN(Cc1ccoc1)c1cccc(-c2ccc(S(C)(=O)=O)cc2)n1 [Compound 52]
Reply text: 4.377
